# tested_on: T1, human a-Mesothelin (Acro Biosystems; MSN_H5223) (human, UniProt Q13421 296-580, limits assumed)
# T1 construct: Bought protein immobilised on the SPR chip; Printed as 'a-Mesothelin' but used as the antigen for the anti-MSLN scFvs; also called Human MSLN; MSLN
# assay_protocol: SPR, mesothelin immobilised, scFv analyte, 1:1 fit
measurement_type: n-fold to wt (fold)
Reply numerically in fold, unit not repeated.

Worked cases, answers included:
>>> number("PRO3345 (scFv 54-21-H03-sc01_(T101N, T146Q)) (scFv, PRO1922 variant; VH substitutions, AHo numbering; also called PRO1922 T101N-T146Q) scFv: DIQMTQSPSSLSASVGDRVTITCQASESIYSSLAWYQQKPGKAPKLLIYLASTLASGVPSRFSGSGSGTDFTLTISSLQPEDFATYYCQSTDYTTSTHRNSFGTGTKVTVLGGGGGSGGGGSGGGGSGGGGSEVQLVESGGGLVQPGGSLRLSCAASGFSFSTTYYMCWVRQAPGKGLEWIGCTNTASSVRTYYATWAKGRFTISRDNSKNTVYLQMNSLRAEDNAVYYCARDMGFADYALNLWGQGTLVQVSS")
0.8
>>> number("PRO3329 (scFv 54-21-H03-sc01_(T101Q)) (scFv, PRO1922 variant; VH substitution, AHo numbering; also called PRO1922 T101Q) scFv: DIQMTQSPSSLSASVGDRVTITCQASESIYSSLAWYQQKPGKAPKLLIYLASTLASGVPSRFSGSGSGTDFTLTISSLQPEDFATYYCQSTDYTTSTHRNSFGTGTKVTVLGGGGGSGGGGSGGGGSGGGGSEVQLVESGGGLVQPGGSLRLSCAASGFSFSTTYYMCWVRQAPGKGLEWIGCTNTASSVRTYYATWAKGRFTISRDNSKNTVYLQMNSLRAEDQAVYYCARDMGFADYALNLWGQGTLVTVSS")
0.9
>>> number("PRO2932 (scFv 54-21-H03-sc01_(L144A, S148N)) (scFv, PRO1922 variant; VH substitutions, AHo numbering; also called PRO1922 L144A-S148N) scFv: DIQMTQSPSSLSASVGDRVTITCQASESIYSSLAWYQQKPGKAPKLLIYLASTLASGVPSRFSGSGSGTDFTLTISSLQPEDFATYYCQSTDYTTSTHRNSFGTGTKVTVLGGGGGSGGGGSGGGGSGGGGSEVQLVESGGGLVQPGGSLRLSCAASGFSFSTTYYMCWVRQAPGKGLEWIGCTNTASSVRTYYATWAKGRFTISRDNSKNTVYLQMNSLRAEDTAVYYCARDMGFADYALNLWGQGTAVTVNS")
1.2

For PRO3324 (scFv 54-21-H03-sc01_(T101R, T146Q)) (scFv, PRO1922 variant; VH substitutions, AHo numbering; also called PRO1922 T101R-T146Q) scFv: DIQMTQSPSSLSASVGDRVTITCQASESIYSSLAWYQQKPGKAPKLLIYLASTLASGVPSRFSGSGSGTDFTLTISSLQPEDFATYYCQSTDYTTSTHRNSFGTGTKVTVLGGGGGSGGGGSGGGGSGGGGSEVQLVESGGGLVQPGGSLRLSCAASGFSFSTTYYMCWVRQAPGKGLEWIGCTNTASSVRTYYATWAKGRFTISRDNSKNTVYLQMNSLRAEDRAVYYCARDMGFADYALNLWGQGTLVQVSS , what is its reported n-fold to wt?
1.1

Sample PRO3346 (scFv 54-21-H03-sc01_(T101S T146K)) (scFv, PRO1922 variant; VH substitutions, AHo numbering; also called PRO1922 T101S-T146K) scFv: DIQMTQSPSSLSASVGDRVTITCQASESIYSSLAWYQQKPGKAPKLLIYLASTLASGVPSRFSGSGSGTDFTLTISSLQPEDFATYYCQSTDYTTSTHRNSFGTGTKVTVLGGGGGSGGGGSGGGGSGGGGSEVQLVESGGGLVQPGGSLRLSCAASGFSFSTTYYMCWVRQAPGKGLEWIGCTNTASSVRTYYATWAKGRFTISRDNSKNTVYLQMNSLRAEDSAVYYCARDMGFADYALNLWGQGTLVKVSS — what was its n-fold to wt?
0.8
